Target: HIS-TGFβR1 T204D (Homo sapiens (Human), UniProt P36897, T204D)
Sequence (P36897 34-503 T204D): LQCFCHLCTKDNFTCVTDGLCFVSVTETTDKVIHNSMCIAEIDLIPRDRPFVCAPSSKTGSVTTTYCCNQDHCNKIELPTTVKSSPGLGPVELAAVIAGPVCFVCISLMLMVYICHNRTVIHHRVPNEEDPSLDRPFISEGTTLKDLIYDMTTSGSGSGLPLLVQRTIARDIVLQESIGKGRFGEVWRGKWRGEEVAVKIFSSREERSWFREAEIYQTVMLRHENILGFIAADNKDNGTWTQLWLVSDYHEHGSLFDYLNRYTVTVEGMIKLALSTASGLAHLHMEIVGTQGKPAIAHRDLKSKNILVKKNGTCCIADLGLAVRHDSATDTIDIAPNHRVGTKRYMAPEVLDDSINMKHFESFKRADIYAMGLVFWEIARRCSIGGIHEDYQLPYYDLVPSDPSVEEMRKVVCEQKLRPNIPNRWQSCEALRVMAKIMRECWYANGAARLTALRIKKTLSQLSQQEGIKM
Assay: HTRF probe displacement assay, HIS-TGFβR1 T204D
Details: 1 nM HIS-TGFβR1 T204D, 1 hour at room temperature, read-out: TGFBR1T204D IC50
pIC50: −log10 of the molar value.
Observation Type: pIC50

Please review the following examples before continuing.
Compound	Assay Value
Cc1cccc(-c2ncccc2-c2ccc3ncc(C(=O)NCC(F)F)n3c2)n1 [Compound 68]	8.40
NC(=O)c1cnc2ccc(-c3cccnc3-c3ccc(F)cn3)nn12 [Compound 54]	6.60
Cc1cccc(-c2nccc(N)c2-c2ccc3ncc(C(N)=O)n3c2)n1 [Compound 101]	8.30
Cc1cccc(-c2ncc(F)cc2-c2ccc3ncc(C(N)=O)n3c2)n1 [Compound 82]	9.00
CCOC(=O)c1cnn2ccc(-c3cccnc3-c3cccc(C(F)(F)F)n3)nc12 [Compound 123]	7.34
NC(=O)c1cnc2ccc(-c3cccnc3-c3cc(F)ccn3)nn12 [Compound 60]	6.79

[A] CC(=O)c1cccc(-c2ncccc2-c2ccc3ncc(C#N)n3c2)n1 [Compound 40]
[B] NC(=O)c1cnc2ccc(-c3cccnc3-c3cccc(C(F)(F)F)n3)cn12 [Compound 18]
When the recorded pIC50 values are compared, which is smaller: that of A or that of B ? I would appreciate it if you answered with the label of your choice.
A
(A: 6.09, B: 9.00)

[1] Cc1cccc(-c2ncccc2-c2ccc3nc(C(N)=O)cn3c2)n1 [Compound 80]
[2] Cc1nc(-c2ncccc2-c2ccn3ncc(C(=O)O)c3n2)ccc1F [Compound 131]
[3] Cc1cccc(-c2ncccc2-c2ccc3ncc(C(=O)NC4COC4)n3n2)n1 [Compound 74]
[4] Nc1ncnc2ccc(-c3cccnc3-c3cccc(C(F)F)n3)cc12 [Compound 109]
[5] Cc1cccc(-c2ncccc2-c2ccc3ncc(C(N)=O)n3n2)n1 [Compound 58]
With regard to pIC50, arrange the entries in ascending order, please. Labels, requested order.
1, 2, 3, 5, 4

[P] CC(=O)Nc1ccnc(-c2cccc(C)n2)c1-c1ccc2ncc(C(N)=O)n2c1 [Compound 102]
[Q] Cc1nc(-c2ncccc2-c2ccn3ncc(C#N)c3n2)ccc1F [Compound 122]
Select the item whose pIC50 value is smaller, choosing between P and Q . Your answer should be the label of the entry you select.
P

[1] N#Cc1cnc2ccc(-c3cccnc3-c3cc(F)ccn3)nn12 [Compound 59]
[2] FC(F)(F)c1cccc(-c2ncccc2-c2ccc3nccnc3c2)n1 [Compound 114]
[3] N#Cc1cnc2ccc(-c3cccnc3-c3cccc(OCc4ccccc4)n3)cn12 [Compound 38]
Order the items by recorded pIC50; the first position goes to the largest value. Output spec: labels arranged per the requested ranking.
2, 1, 3
(2: 7.80, 1: 6.04, 3: 5.72)
